system: eosinophils; experiment: Eosinophil shape change assay with human plasma; format: cell-based; details: Homo sapiens, Eosinophil, human plasma (50%), PGD2 100 nM activation, antagonistic activity
pIC50: −log10 of the molar value.
Listed here are compounds together with their documented pIC50.
parameter_measured: pIC50

>>> numeric_result("COc1ccc(CC(=O)O)cc1-c1ccc(F)c2c1CN(C(=O)OCc1ccccc1F)CC2 [Example 146]")
6.58
>>> numeric_result("CCOc1ccc(CC(=O)O)cc1-c1ccc(F)c2c1CN(C(=O)OCc1cc(F)ccc1F)CC2 [Example 401]")
7.59
>>> numeric_result("COc1ccc(CC(=O)O)cc1-c1ccc(F)c2c1CN(C(=O)CN(C)C(c1ccccc1)c1ccc(Cl)cc1)CC2 (racemic) [Example 253]")
6.40
>>> numeric_result("COc1ccc(CC(=O)O)cc1-c1ccc(F)c2c1CN(C(=O)CC1CCOc3ccccc31)CC2 (racemic) [Example 262]")
7.18
>>> numeric_result("COc1ccc(CC(=O)O)cc1-c1cc(F)cc2c1CN(C(=O)OCc1ccccc1)CC2 [Example 32]")
6.45
>>> numeric_result("COCCOc1ccc(CC(=O)O)cc1-c1ccc(F)c2c1CN(C(=O)OCc1ccccc1)CC2 [Example 199]")
7.72
>>> numeric_result("CS(=O)(=O)c1ccc(CC(=O)O)cc1-c1ccc(F)c2c1CN(C(=O)[C@@H]1C[C@H]1c1ccccc1)CC2 [Example 29]")
7.70
>>> numeric_result("CCOc1cc(CC(=O)O)ccc1-c1ccc(F)c2c1CN(C(=O)CC1CCOc3ccccc31)CC2 (racemic) [Example 236]")
7.92
